- EXPERIMENTAL_TARGET: Amine oxidase [flavin-containing] B (Homo sapiens)
- Sequence (P27338 whole entry): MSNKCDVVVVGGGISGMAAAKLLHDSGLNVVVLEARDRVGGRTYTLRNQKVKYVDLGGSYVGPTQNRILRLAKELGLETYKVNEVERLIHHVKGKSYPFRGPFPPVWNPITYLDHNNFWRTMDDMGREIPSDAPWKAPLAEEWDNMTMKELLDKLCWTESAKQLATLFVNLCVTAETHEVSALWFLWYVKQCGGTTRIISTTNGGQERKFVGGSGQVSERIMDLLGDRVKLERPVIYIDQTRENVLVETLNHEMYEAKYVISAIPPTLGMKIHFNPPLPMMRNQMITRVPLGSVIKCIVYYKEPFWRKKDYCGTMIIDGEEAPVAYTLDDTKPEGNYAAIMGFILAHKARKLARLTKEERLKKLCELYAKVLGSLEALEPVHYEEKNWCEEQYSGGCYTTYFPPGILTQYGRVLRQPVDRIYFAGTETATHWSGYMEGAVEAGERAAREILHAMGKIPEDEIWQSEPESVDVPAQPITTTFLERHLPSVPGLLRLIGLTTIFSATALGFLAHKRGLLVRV
- METHOD_DESCRIPTION: Inhibition of recombinant human MAO-B expressed in baculovirus infected BTI insect cells preincubated for 10 mins followed by addition of benzylamine as substrate
pIC50: −log10 of the molar value.
READOUT_TYPE: pIC50

I: COc1ccc2c(c1O)OC[C@H]1c3cc4c(cc3O[C@@H]21)OCO4
II: Oc1ccc2c(c1)OC[C@H]1c3cc4c(cc3O[C@@H]21)OCO4
III: COc1ccc(-c2coc3cc(O)ccc3c2=O)cc1
Problem: Place the item with the largest pIC50 first, then continue in falling order, using the list above. Use the labels to give the requested order.
Solution: II, I, III
(II: 6.17, I: 4.99, III: 4.59)
